Recorded MIC, one value per entry.
Test system: Streptococcus pyogenes
Assay: MIC microdilution, S. pyogenes
Type: cell-based
Conditions: 24 h, read-out: MIC Streptococcus pyogenes

MOLECULE	MIC / µg/mL
CN[C@H](CC(C)C)C(=O)N[C@H]1C(=O)N[C@@H](CC(N)=O)C(=O)N[C@H]2C(=O)N[C@H]3C(=O)N[C@H](C(=O)N[C@H](C(=O)O)c4cc(O)cc(O)c4-c4cc3ccc4O)[C@H](O)c3ccc(c(Cl)c3)Oc3cc2cc(c3O[C@@H]2O[C@H](CO)[C@@H](O)[C@H](O)[C@H]2O[C@H]2C[C@](C)(N)[C@H](O)[C@H](C)O2)Oc2ccc(cc2Cl)[C@H]1O [Vancomycin, reference compound]	0.4
CC(C)(C)[C@H](NC(=O)[C@H](CC1CCCC1)CN(O)C=O)C(=O)N1CCC(Nc2ccc(F)cc2)CC1	0.2
CC(C)(C)[C@H](NC(=O)[C@H](CC1CCCC1)CN(O)C=O)C(=O)N1CCC(Nc2ccc(F)cc2F)CC1	0.1
CC(C)(C)[C@H](NC(=O)[C@H](CC1CCCC1)CN(O)C=O)C(=O)N1CCC(Nc2ccccc2)CC1	0.1

----------
System: Vancomycin-resistant Enterococcus faecium
Test: MIC microdilution, VR E. faecium
Type: cell-based
Settings: microdilution, Mueller-Hinton Broth, 37° C., 24 hours, read-out: MIC Vancomycin-resistant Enterococcus faecium
Method: Minimum inhibitory concentrations (MICs) were determined using the microdilution method in 96-well format plates. Each of the compounds of Examples was dissolved in dimethyl sulfoxide to a concentration of 2 mg/mL and stored at 4° C. until used. They were diluted in Mueller-Hinton Broth (MHB) and used for MIC determination. […] Plates were incubated at 37° C. and MIC were recorded after 24 hours of incubation for bacteria. […]

MOLECULE	MEASURED_ON	MIC
COc1ccc(CNC2CCN(C(=O)[C@@H](NC(=O)[C@H](CC3CCCC3)CN(O)C=O)C(C)(C)C)CC2)cc1 [Example 5]	Vancomycin-resistant Enterococcus faecium	1.6 µg/mL
CC(C)(C)[C@H](NC(=O)[C@H](CC1CCCC1)CN(O)C=O)C(=O)N1CCC(NCc2ccc(O)cc2)CC1 [Example 6]	Vancomycin-resistant Enterococcus faecium	50 µg/mL
COc1ccc(NC2CCN(C(=O)[C@@H](NC(=O)[C@H](CC3CCCC3)CN(O)C=O)C(C)(C)C)CC2)cc1 [Example 19]	Vancomycin-resistant Enterococcus faecium	1.6 µg/mL
CN(c1ccccc1)C1CCN(C(=O)[C@@H](NC(=O)[C@H](CC2CCCC2)CN(O)C=O)C(C)(C)C)CC1 [Example 22]	Vancomycin-resistant Enterococcus faecium	0.2 µg/mL
CC(C)(C)[C@H](NC(=O)[C@H](CC1CCCC1)CN(O)C=O)C(=O)N1CCC(NCc2ccc(C#N)cc2)CC1 [Example 3]	Vancomycin-resistant Enterococcus faecium	0.4 µg/mL
COc1ccc(CNC2CCN(C(=O)[C@@H](NC(=O)[C@H](CC3CCCC3)CN(O)C=O)C(C)(C)C)CC2)c(OC)c1 [Example 12]	Vancomycin-resistant Enterococcus faecium	3.1 µg/mL
CC(C)(C)[C@H](NC(=O)[C@H](CC1CCCC1)CN(O)C=O)C(=O)N1CCC(NCc2ccc(F)cc2)CC1 [Example 4]	Vancomycin-resistant Enterococcus faecium	0.4 µg/mL
COc1ccc(NC2CCN(C(=O)[C@@H](NC(=O)[C@H](CC3CCCC3)CN(O)C=O)C(C)(C)C)CC2)c(OC)c1 [Example 24]	Vancomycin-resistant Enterococcus faecium	0.8 µg/mL
COC(=O)c1ccc(CNC2CCN(C(=O)[C@@H](NC(=O)[C@H](CC3CCCC3)CN(O)C=O)C(C)(C)C)CC2)cc1 [Example 7]	Vancomycin-resistant Enterococcus faecium	3.1 µg/mL
CC(C)(C)[C@H](NC(=O)[C@H](CC1CCCC1)CN(O)C=O)C(=O)N1CCC(Nc2ccc(O)cc2)CC1 [Example 20]	Vancomycin-resistant Enterococcus faecium	25 µg/mL
CC(=O)NC[C@H]1CN(c2ccc(N3CCOCC3)c(F)c2)C(=O)O1 [Linezolid, reference compound]	Vancomycin-resistant Enterococcus faecium	1.6 µg/mL
Cc1ccc(CNC2CCN(C(=O)[C@@H](NC(=O)[C@H](CC3CCCC3)CN(O)C=O)C(C)(C)C)CC2)cc1 [Example 2]	Vancomycin-resistant Enterococcus faecium	0.4 µg/mL
COC(=O)c1ccc(NC2CCN(C(=O)[C@@H](NC(=O)[C@H](CC3CCCC3)CN(O)C=O)C(C)(C)C)CC2)cc1 [Example 21]	Vancomycin-resistant Enterococcus faecium	1.6 µg/mL
CC(C)(C)[C@H](NC(=O)[C@H](CC1CCCC1)CN(O)C=O)C(=O)N1CCC(NCc2ccccn2)CC1 [Example 9]	Vancomycin-resistant Enterococcus faecium	12.5 µg/mL
CC(C)(C)[C@H](NC(=O)[C@H](CC1CCCC1)CN(O)C=O)C(=O)N1CCC(Nc2ccc(N3CCOCC3)c(F)c2)CC1 [Example 25]	Vancomycin-resistant Enterococcus faecium	3.1 µg/mL
CC(C)(C)[C@H](NC(=O)[C@H](CC1CCCC1)CN(O)C=O)C(=O)N1CCC(Nc2ccc(C#N)cc2)CC1 [Example 16]	Vancomycin-resistant Enterococcus faecium	0.4 µg/mL
CC(C)(C)[C@H](NC(=O)[C@H](CC1CCCC1)CN(O)C=O)C(=O)N1CCC(NCc2cc(F)c(F)cc2F)CC1 [Example 14]	Vancomycin-resistant Enterococcus faecium	0.2 µg/mL
Cc1ccc(NC2CCN(C(=O)[C@@H](NC(=O)[C@H](CC3CCCC3)CN(O)C=O)C(C)(C)C)CC2)cc1 [Example 18]	Vancomycin-resistant Enterococcus faecium	0.4 µg/mL
